TARGET OR TEST SYSTEM: α7 neuronal nicotinic acetylcholine receptor subtype (Rattus norvegicus, UniProt Q05941)
Construct: from tissue; host or cells: rat brain membranes (without cortex, striatum and cerebellum)
Sequence (Q05941 23-502): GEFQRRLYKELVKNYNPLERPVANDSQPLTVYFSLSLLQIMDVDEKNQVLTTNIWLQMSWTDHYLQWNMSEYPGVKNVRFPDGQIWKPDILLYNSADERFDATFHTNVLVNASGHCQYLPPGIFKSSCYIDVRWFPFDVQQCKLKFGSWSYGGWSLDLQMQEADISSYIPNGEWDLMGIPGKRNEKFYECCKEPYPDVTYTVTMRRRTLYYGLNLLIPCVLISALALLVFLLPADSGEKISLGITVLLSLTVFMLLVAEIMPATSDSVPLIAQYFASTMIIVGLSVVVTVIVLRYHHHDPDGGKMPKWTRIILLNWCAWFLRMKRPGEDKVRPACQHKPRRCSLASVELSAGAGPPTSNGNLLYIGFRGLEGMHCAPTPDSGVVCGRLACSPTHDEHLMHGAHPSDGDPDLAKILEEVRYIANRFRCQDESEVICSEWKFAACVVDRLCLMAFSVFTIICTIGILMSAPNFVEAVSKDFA
METHOD NOTES: [3H]-MLA binding assay, rat brain membranes
CONDITION INFO: rat brain membranes, 2.5 nM [3H]-MLA; read-out: Ki, displacement of [3H]-MLA binding
Counter-ions that a name gives are not always drawn.
ENDPOINT LABEL: Ki (µM)

COMPOUND: CN1CCC[C@H]1c1ccc[n+](CCCCCCC2CCCCC2)c1 [NCyNB-6, hydrobromide salt]
MEASURED: 42.7
--
COMPOUND: CN1CCC[C@H]1c1ccc[n+](CCCCCCC2CCCC2)c1 [NCyNB-5, hydrobromide salt]
MEASURED: 88.7
--
COMPOUND: CN1CCC[C@H]1c1ccc[n+](CCCCCCC2CCC2)c1 [NCyNB-4, hydrobromide salt]
MEASURED: 30.3

// provenance: patent US7091357B2
